B1: PBXIP1 (parent)
chain: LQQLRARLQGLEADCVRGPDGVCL

- Variants of: B1
- Protocol: protein stability index of a GFP-peptide fusion (GPS, HEK-293T) (PSI 1-6); higher = more stable;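 note: lentivirally expressed fusions sorted by FACS into six bins by GFP to DsRed ratio, PSI derived from sequencing read proportions per bin multiplied by bin number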
- Measurement Context: c terminus: a fixed tail appended
Measured Metric: protein stability index
Please give the numeric answer without any surrounding text.

Input line: Field request: protein stability index | item: LQILRARLQGLEADCVRGPDGVCL [Q3I]
Output line: 1.68

Input line: Field request: protein stability index | item: LQQLRARLQGLEADCVRAPDGVCL [G18A]
Output line: 2.97

Input line: Field request: protein stability index | item: LQQLRARLWGLEADCVRGPDGVCL [Q9W]
Output line: 1.86

Input line: Field request: protein stability index | item: LQQLRARLQGLPADCVRGPDGVCL [E12P]
Output line: 1.8

Input line: Field request: protein stability index | item: LQQLRARLQGLEADCVRGPDGQCL [V22Q]
Output line: 2.83

Input line: Field request: protein stability index | item: LQQLRARLQGLEADCVRGPHGVCL [D20H]
Output line: 1.6

Input line: Field request: protein stability index | item: LQQLRARLQGLENDCVRGPDGVCL [A13N]
Output line: 2.56

Input line: Field request: protein stability index | item: LSQLRARLQGLEADCVRGPDGVCL [Q2S]
Output line: 2.63

Input line: Field request: protein stability index | item: LQQHRARLQGLEADCVRGPDGVCL [L4H]
Output line: 3.26

Input line: Field request: protein stability index | item: LQQMRARLQGLEADCVRGPDGVCL [L4M]
Output line: 2.03

Input line: Field request: protein stability index | item: LQQLRAELQGLEADCVRGPDGVCL [R7E]
Output line: 4.03

// data source = the supplement of paper PMC10567573
